- Test system: RSV F-protein expression in CF-BEC
- Protocol Description: RSV F-protein expression in CF-BEC (HBECs from patients with cystic fibrosis) infected with RSV
- Format: cell-based, respiratory syncitial virus (RSV A2)
- Run Parameters: human respiratory syncytial virus, 96 h, read-out: CF-BEC IC50 (nM)
Recorded measurements of IC50, one per entry
Write it as a number; the unit nM goes unstated.

Molecule: COCC(=O)Nc1cc(COc2ccc(NC(=O)Nc3cc(C(C)(C)C)nn3-c3ccc(C)cc3)c3ccccc23)ccn1 [Example 1]
Study Target: RSV F-protein expression in CF-BEC
Readout Name: IC50
Measured Number: 69

Here is another molecule to look at.
What does the data say about its IC50? Entry: COCC(=O)Nc1cc(Oc2ccc(NC(=O)Nc3cc(C(C)(C)C)nn3-c3ccc(C)cc3)c3ccccc23)ccn1 [Example 59] 58

###

Recorded measurements of inhibition at 0.04 µg/mL, one per entry
- Test system: RSV F-protein expression in NHBEC
- Protocol Description: RSV F-protein expression in NHBEC infected with RSV A2 (in vitro RSV virus load)
- Format: cell-based, respiratory syncitial virus (RSV A2)
- Run Parameters: human respiratory syncytial virus, 96 h, read-out: % inhibition (at 0.04 μg/mL)
Write it as a number; the unit % goes unstated.

Solved entries (count: 2):
Compound: COCC(=O)Nc1cc(COc2ccc(NC(=O)Nc3cc(C(C)(C)C)nn3-c3ccc(C)cc3)c3ccccc23)ccn1 [Example 1]
Study Target: RSV F-protein expression in NHBEC
inhibition at 0.04 µg/mL [%]: 46.8
--
Compound: COCC(=O)Nc1cc(Oc2ccc(NC(=O)Nc3cc(C(C)(C)C)nn3-c3ccc(C)cc3)c3ccccc23)ccn1 [Example 59]
Study Target: RSV F-protein expression in NHBEC
inhibition at 0.04 µg/mL [%]: 67.5

Notebook entry, RSV F-protein expression in NHBEC assay: inhibition at 0.04 µg/mL of Cc1ccc(-n2nc(C(C)(C)C)cc2NC(=O)Nc2ccc(OCCc3ccnc(NC(N)=O)c3)c3ccccc23)cc1 [Example 40] = ? 24.9

Notebook entry, RSV F-protein expression in NHBEC assay: inhibition at 0.04 µg/mL of Cc1ccc(-n2nc(C(C)(C)C)cc2NC(=O)Nc2ccc(Oc3ccnc(NC(=O)N4CCCC4)c3)c3ccccc23)cc1 [Example 65] = ? 56.5

Notebook entry, RSV F-protein expression in NHBEC assay: inhibition at 0.04 µg/mL of CNC(=O)Nc1cc(Oc2ccc(NC(=O)Nc3cc(C(C)(C)C)nn3-c3ccc(C)cc3)c3ccccc23)ccn1 [Example 88] = ? 71.7
